Tested on: Convolvulus arvensis
Experiment: Test on herbicidal activity by foliar application
Assay type: in vivo
Conditions: foliar spray, 1 kg/ha, plants at 1-2 leaf stage in pots, evaluated 14 days after spraying
property_measured: Herbicidal activity, Convolvulus arvensis

[[record]]
structure_notation = "COc1ccc(C(=O)NS(=O)(=O)c2ccccc2OC(F)(F)F)nc1Br"
system = "Convolvulus arvensis"
test_value = "5 (90% or more inhibition)"

[[record]]
structure_notation = "COc1ccc(C(=O)NS(=O)(=O)c2ccccc2S(=O)(=O)N(C)C)nc1Br"
system = "Convolvulus arvensis"
test_value = "5 (90% or more inhibition)"

[[record]]
structure_notation = "COc1cc(Cl)nc(C(=O)NS(=O)(=O)c2ccccc2S(=O)(=O)N(C)C)c1"
system = "Convolvulus arvensis"
test_value = "5 (90% or more inhibition)"

[[record]]
structure_notation = "COc1ccc(C(=O)NS(=O)(=O)c2ccccc2S(=O)(=O)N(C)C)nc1"
system = "Convolvulus arvensis"
test_value = "3 (50% or more-70% inhibition)"

[[record]]
structure_notation = "COc1cc(Cl)nc(C(=O)NS(=O)(=O)c2c(F)cccc2F)c1"
system = "Convolvulus arvensis"
test_value = "4 (70% or more-90% inhibition)"

[[record]]
structure_notation = "O=C(NS(=O)(=O)c1c(Cl)cccc1Cl)c1cc(Cl)cc(Cl)n1"
system = "Convolvulus arvensis"
test_value = "5 (90% or more inhibition)"

[[record]]
structure_notation = "COC(=O)c1ccccc1S(=O)(=O)NC(=O)c1ccc(OC)c(Br)n1"
system = "Convolvulus arvensis"
test_value = "3 (50% or more-70% inhibition)"

[[record]]
structure_notation = "COc1ccc(C(=O)NS(=O)(=O)c2ccccc2S(=O)(=O)N(C)C)nc1C"
system = "Convolvulus arvensis"
test_value = "4 (70% or more-90% inhibition)"


* * *

System: Matricaria chamomilla
Assay: Test on herbicidal activity by foliar application
Type: in vivo
Conditions: foliar spray, 1 kg/ha, plants at 1-2 leaf stage in pots, evaluated 14 days after spraying
Source text: […]
property_measured: Herbicidal activity, Matricaria chamomilla

[[record]]
structure_notation = "COc1cc(Cl)cc(C(=O)NS(=O)(=O)c2c(Cl)cccc2Cl)n1"
test_value = "5 (90% or more inhibition)"

[[record]]
structure_notation = "COc1ccc(C(=O)NS(=O)(=O)c2ccccc2OC(F)(F)F)nc1"
test_value = "5 (90% or more inhibition)"

[[record]]
structure_notation = "COc1cc(Cl)nc(C(=O)NS(=O)(=O)c2ccccc2S(=O)(=O)N(C)OC)c1"
test_value = "5 (90% or more inhibition)"

[[record]]
structure_notation = "COC(=O)c1ccccc1S(=O)(=O)NC(=O)c1ccc(OC)c(OC)n1"
test_value = "4 (70% or more-90% inhibition)"


* * *

Form field: Herbicidal activity, Matricaria chamomilla (one value per entry).
System: Matricaria chamomilla
Assay: Test on herbicidal activity by foliar application
Format: in vivo
Details: foliar spray, 1 kg/ha, plants at 1-2 leaf stage in pots, evaluated 14 days after spraying
property_measured: Herbicidal activity, Matricaria chamomilla

[[record]]
structure_notation = "COc1cc(Cl)nc(C(=O)NS(=O)(=O)c2ccccc2OC(F)(F)F)c1"
test_value = "5 (90% or more inhibition)"

[[record]]
structure_notation = "COc1ccc(C(=O)NS(=O)(=O)c2ccccc2S(=O)(=O)N(C)C)nc1Cl"
test_value = "5 (90% or more inhibition)"

[[record]]
structure_notation = "COc1ccc(C(=O)NS(=O)(=O)c2ccccc2OC(F)(F)F)nc1[N+](=O)[O-]"
test_value = "5 (90% or more inhibition)"

[[record]]
structure_notation = "COc1ccc(C(=O)NS(=O)(=O)c2ccccc2OC(F)(F)F)nc1OC"
test_value = "5 (90% or more inhibition)"

[[record]]
structure_notation = "COc1ccc(C(=O)NS(=O)(=O)c2c(Cl)cccc2Cl)nc1"
test_value = "4 (70% or more-90% inhibition)"

[[record]]
structure_notation = "O=C(NS(=O)(=O)c1c(Cl)cccc1Cl)c1cccc(Cl)n1"
test_value = "5 (90% or more inhibition)"

[[record]]
structure_notation = "COC(=O)c1ccccc1S(=O)(=O)NC(=O)c1cc(Cl)cc(OC)n1"
test_value = "2 (30% or more-50% inhibition)"

[[record]]
structure_notation = "COC(=O)c1ccccc1S(=O)(=O)NC(=O)c1ccc(OC)c(Cl)n1"
test_value = "5 (90% or more inhibition)"

[[record]]
structure_notation = "COc1ccc(C(=O)NS(=O)(=O)c2ccccc2S(=O)(=O)N(C)C)nc1Br"
test_value = "5 (90% or more inhibition)"

[[record]]
structure_notation = "COc1ccc(C(=O)NS(=O)(=O)c2ccccc2S(=O)(=O)N(C)C)nc1OC"
test_value = "5 (90% or more inhibition)"

[[record]]
structure_notation = "COc1ccc(C(=O)NS(=O)(=O)c2ccccc2S(=O)(=O)N(C)OC)nc1Br"
test_value = "5 (90% or more inhibition)"

[[record]]
structure_notation = "COc1ccc(C(=O)NS(=O)(=O)c2ccccc2OC(F)(F)F)nc1Br"
test_value = "5 (90% or more inhibition)"

[[record]]
structure_notation = "COc1cc(Cl)nc(C(=O)NS(=O)(=O)c2c(Cl)cccc2Cl)c1"
test_value = "5 (90% or more inhibition)"

[[record]]
structure_notation = "Cc1nc(C(=O)NS(=O)(=O)c2ccccc2S(=O)(=O)N(C)C)ccc1[N+](=O)[O-]"
test_value = "2 (30% or more-50% inhibition)"

[[record]]
structure_notation = "COC(=O)c1ccccc1S(=O)(=O)NC(=O)c1cccc(Cl)n1"
test_value = "5 (90% or more inhibition)"

[[record]]
structure_notation = "COc1ccc(C(=O)NS(=O)(=O)c2ccccc2S(=O)(=O)N(C)C)nc1[N+](=O)[O-]"
test_value = "4 (70% or more-90% inhibition)"

[[record]]
structure_notation = "O=C(NS(=O)(=O)c1ccccc1OC(F)(F)F)c1cccc(Cl)n1"
test_value = "5 (90% or more inhibition)"

[[record]]
structure_notation = "COc1cc(Cl)nc(C(=O)NS(=O)(=O)c2ccccc2S(=O)(=O)N(C)C)c1"
test_value = "5 (90% or more inhibition)"

[[record]]
structure_notation = "COC(=O)c1ccccc1S(=O)(=O)NC(=O)c1ccc(OC)cn1"
test_value = "5 (90% or more inhibition)"

[[record]]
structure_notation = "COc1ccc(C(=O)NS(=O)(=O)c2c(Cl)cccc2Cl)nc1Cl"
test_value = "5 (90% or more inhibition)"

[[record]]
structure_notation = "COc1ccc(C(=O)NS(=O)(=O)c2ccccc2S(C)(=O)=O)nc1Br"
test_value = "5 (90% or more inhibition)"

[[record]]
structure_notation = "O=C(NS(=O)(=O)c1c(Cl)cccc1Cl)c1cc(Cl)cc(Cl)n1"
test_value = "5 (90% or more inhibition)"

[[record]]
structure_notation = "COC(=O)c1ccccc1S(=O)(=O)NC(=O)c1cc(OC)cc(Cl)n1"
test_value = "5 (90% or more inhibition)"

[[record]]
structure_notation = "COc1ccc(C(=O)NS(=O)(=O)c2ccccc2S(=O)(=O)N(C)C)nc1"
test_value = "5 (90% or more inhibition)"

[[record]]
structure_notation = "COc1ccc(C(=O)NS(=O)(=O)c2ccccc2S(=O)(=O)N(C)C)nc1C"
test_value = "5 (90% or more inhibition)"

[[record]]
structure_notation = "COc1cc(Cl)nc(C(=O)NS(=O)(=O)c2ccccc2S(C)(=O)=O)c1"
test_value = "5 (90% or more inhibition)"

[[record]]
structure_notation = "COc1cc(Cl)nc(C(=O)NS(=O)(=O)c2ccccc2Cl)c1"
test_value = "4 (70% or more-90% inhibition)"

[[record]]
structure_notation = "COc1cc(Cl)nc(C(=O)NS(=O)(=O)c2c(F)cccc2F)c1"
test_value = "4 (70% or more-90% inhibition)"

[[record]]
structure_notation = "COc1ccc(C(=O)NS(=O)(=O)c2ccccc2C(F)(F)F)nc1"
test_value = "5 (90% or more inhibition)"

[[record]]
structure_notation = "CN(C)S(=O)(=O)c1ccccc1S(=O)(=O)NC(=O)c1cccc(Cl)n1"
test_value = "5 (90% or more inhibition)"

[[record]]
structure_notation = "COc1ccc(C(=O)NS(=O)(=O)c2ccccc2OC(F)(F)F)nc1Cl"
test_value = "5 (90% or more inhibition)"

[[record]]
structure_notation = "COC(=O)c1ccccc1S(=O)(=O)NC(=O)c1cc(OC)cc(C)n1"
test_value = "3 (50% or more-70% inhibition)"

[[record]]
structure_notation = "COc1cc(Cl)nc(C(=O)NS(=O)(=O)c2cccc(Cl)c2Cl)c1"
test_value = "4 (70% or more-90% inhibition)"

[[record]]
structure_notation = "COC(=O)c1ccccc1S(=O)(=O)NC(=O)c1ccc(OC)c(Br)n1"
test_value = "5 (90% or more inhibition)"

